System: biotinyl-Ile-oxazolone
Assay: self-aminoacylation, catalytic enhancement (BIO) (fold over background); higher = more active; k-Seq, kA / k0A0; sequences stand for … in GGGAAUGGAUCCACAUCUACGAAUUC…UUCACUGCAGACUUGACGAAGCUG
Variants at the floor of the assay were thinned out.
Each entry below carries its reported self-aminoacylation.
Give the figure only, with no unit attached.

Consider the reported self-aminoacylation for these sequences:
Data request: Which self-aminoacylation value is on record for AAGUUUCCUAAGAGUCGCAAG [Fam3.1 aminoacylation ribozyme variant] ?
Data returned: 1.29

Data request: Which self-aminoacylation value is on record for GUUACCCUGGCCAUCGAGUGA [Fam2.1 aminoacylation ribozyme variant] ?
Data returned: 4.06

Data request: Which self-aminoacylation value is on record for AUUCACGUAGCUCAUCGGGUG [Fam2.2 aminoacylation ribozyme variant] ?
Data returned: 2.24

Data request: Which self-aminoacylation value is on record for AUUGCCCUGGUCAUCGAGUUA [Fam2.1 aminoacylation ribozyme variant] ?
Data returned: 2.31

Data request: Which self-aminoacylation value is on record for CUACUUCAAUUAAUCGGUCUG [Fam1A.1 aminoacylation ribozyme variant] ?
Data returned: 1.08

Next:
Data request: Which self-aminoacylation value is on record for AUUCGCCUAGGUCAUCGGGAG [Fam2.2 aminoacylation ribozyme variant] ?
Data returned: 1.29

Data request: Which self-aminoacylation value is on record for AUUCACCUUGGUCAUCGAGUG [Fam2.2 aminoacylation ribozyme variant] ?
Data returned: 2.69

Data request: Which self-aminoacylation value is on record for AUGUUUGCUAAUAGUCGAAAG [Fam3.1 aminoacylation ribozyme variant] ?
Data returned: 1.28

Data request: Which self-aminoacylation value is on record for CUACUUCAAACUAUCGGCCUG [Fam1A.1 aminoacylation ribozyme variant] ?
Data returned: 1.2

====

Tested on: biotinyl-Val-oxazolone
Assay: self-aminoacylation, catalytic enhancement (BVO) (fold over background); higher = more active; k-Seq, kA / k0A0; sequences stand for … in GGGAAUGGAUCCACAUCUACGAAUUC…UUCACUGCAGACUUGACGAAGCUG
This sample holds only a part of the variants without activity.
Each entry below carries its reported self-aminoacylation.
Give the figure only, with no unit attached.

Data request: Tell me reported self-aminoacylation for AAGUUUCCUAAUAGUCGCAAC [Fam3.1 aminoacylation ribozyme variant] , tested with biotinyl-Val-oxazolone.
Data returned: 1.31

Next:
Data request: Tell me reported self-aminoacylation for AUUCAUCUAGGUCAUCGGGUG [Fam2.2 aminoacylation ribozyme variant] , tested with biotinyl-Val-oxazolone.
Data returned: 4.7

Data request: Tell me reported self-aminoacylation for AUUUCCCUGGUCAUAGAGUGA [Fam2.1 aminoacylation ribozyme variant] , tested with biotinyl-Val-oxazolone.
Data returned: 4.88

Data request: Tell me reported self-aminoacylation for AAGUUUUCUAAUAGUCGCAGG [Fam3.1 aminoacylation ribozyme variant] , tested with biotinyl-Val-oxazolone.
Data returned: 1.52

Data request: Tell me reported self-aminoacylation for CCACACUUCAAGCAAACGGUU [Fam1B.1 aminoacylation ribozyme variant] , tested with biotinyl-Val-oxazolone.
Data returned: 1.59

Data request: Tell me reported self-aminoacylation for AUUCCCGUGGUCAUCGAGUGA [Fam2.1 aminoacylation ribozyme variant] , tested with biotinyl-Val-oxazolone.
Data returned: 5.81

Data request: Tell me reported self-aminoacylation for AGUCACCUAGGGCAUCGGGUG [Fam2.2 aminoacylation ribozyme variant] , tested with biotinyl-Val-oxazolone.
Data returned: 3.45

Data request: Tell me reported self-aminoacylation for AGUACCCUGGUCAUCGAGCGA [Fam2.1 aminoacylation ribozyme variant] , tested with biotinyl-Val-oxazolone.
Data returned: 1.9

Data request: Tell me reported self-aminoacylation for AUGACCUUGGUCAUCGAGUGA [Fam2.1 aminoacylation ribozyme variant] , tested with biotinyl-Val-oxazolone.
Data returned: 3.1

====

Test system: biotinyl-Met-oxazolone
Assay: self-aminoacylation, catalytic enhancement (BMO) (fold over background); higher = more active; k-Seq, kA / k0A0; sequences stand for … in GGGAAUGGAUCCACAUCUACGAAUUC…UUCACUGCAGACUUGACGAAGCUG
Fewer inactive variants are shown than the library holds.
Each entry below carries its reported self-aminoacylation.
Give the figure only, with no unit attached.

Data request: Which self-aminoacylation value is on record for AUUACCCUGGUGAUCGAGUGU [Fam2.1 aminoacylation ribozyme variant] ?
Data returned: 2.12

Data request: Which self-aminoacylation value is on record for AUUACCCUGGUCUUAGAGUGA [Fam2.1 aminoacylation ribozyme variant] ?
Data returned: 7.82

Data request: Which self-aminoacylation value is on record for CUACUUCAAACAAUCUUUCUG [Fam1A.1 aminoacylation ribozyme variant] ?
Data returned: 0.771

Next:
Data request: Which self-aminoacylation value is on record for AUUCACGUAGGUCAUCUGGUG [Fam2.2 aminoacylation ribozyme variant] ?
Data returned: 5.3

Data request: Which self-aminoacylation value is on record for ACUCAUCUAGGUCAUCGGGUG [Fam2.2 aminoacylation ribozyme variant] ?
Data returned: 6.28

Data request: Which self-aminoacylation value is on record for CCACACUUCUAGCAAUCUGUC [Fam1B.1 aminoacylation ribozyme variant] ?
Data returned: 0.378

Data request: Which self-aminoacylation value is on record for CUACUGCAAACAACCGGUCUG [Fam1A.1 aminoacylation ribozyme variant] ?
Data returned: 0.762

Data request: Which self-aminoacylation value is on record for ACUCACCUAAGUCAUCGGGUG [Fam2.2 aminoacylation ribozyme variant] ?
Data returned: 9.14

Data request: Which self-aminoacylation value is on record for CUACUUCAAACAGUCGGUCUU [Fam1A.1 aminoacylation ribozyme variant] ?
Data returned: 0.925

Data request: Which self-aminoacylation value is on record for AUUCACCUAGGUCGUCGGAUG [Fam2.2 aminoacylation ribozyme variant] ?
Data returned: 0.982

Data request: Which self-aminoacylation value is on record for AUUACCCUGGACAUCGACUGA [Fam2.1 aminoacylation ribozyme variant] ?
Data returned: 0.616

Data request: Which self-aminoacylation value is on record for CUAGUCCAAACAAUCGGUCUG [Fam1A.1 aminoacylation ribozyme variant] ?
Data returned: 0.736

Data request: Which self-aminoacylation value is on record for AAGUUACCUAAUAGUCGCAAG [Fam3.1 aminoacylation ribozyme variant] ?
Data returned: 1.44

Data request: Which self-aminoacylation value is on record for CCACAUUGCAAGCAAUCGGUC [Fam1B.1 aminoacylation ribozyme variant] ?
Data returned: 1.67

Data request: Which self-aminoacylation value is on record for AAGUUCCCUAAUAGUCGCAAG [Fam3.1 aminoacylation ribozyme variant] ?
Data returned: 0.931

Data request: Which self-aminoacylation value is on record for AUUAGCCUGGACAUCGAGUGA [Fam2.1 aminoacylation ribozyme variant] ?
Data returned: 8.78

Data request: Which self-aminoacylation value is on record for CAACACUUCAAGCCAUCGGUC [Fam1B.1 aminoacylation ribozyme variant] ?
Data returned: 1.35

Data request: Which self-aminoacylation value is on record for CCACACUCCAAGCAAUCAGUC [Fam1B.1 aminoacylation ribozyme variant] ?
Data returned: 0.699

====

System: biotinyl-Trp-oxazolone
Test: self-aminoacylation, catalytic enhancement (BWO) (fold over background); higher = more active; k-Seq, kA / k0A0; sequences stand for … in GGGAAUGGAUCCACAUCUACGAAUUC…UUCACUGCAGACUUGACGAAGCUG
This sample holds only a part of the variants without activity.
Would you mind classing the entries by self-aminoacylation? Ranges: low band (below 2), middle band (2 to below 3), high band (3 or more)

Some solved cases for reference:
Data request: Hi there! Could you help me figure out the category for AUUACCCUGCUGAUCGAGUGA [Fam2.1 aminoacylation ribozyme variant] please?
Data returned: middle band

Data request: Hi there! Could you help me figure out the category for CUACUUCAGACAAUGGGUCUG [Fam1A.1 aminoacylation ribozyme variant] please?
Data returned: low band

Data request: Hi there! Could you help me figure out the category for AUUCAGCUAGGUGAUCGGGUG [Fam2.2 aminoacylation ribozyme variant] please?
Data returned: high band

Next:
Data request: Hi there! Could you help me figure out the category for CUACUGCAGACAAUCGGUCUG [Fam1A.1 aminoacylation ribozyme variant] please?
Data returned: low band

====

Each entry below carries its reported self-aminoacylation.
Tested on: biotinyl-Trp-oxazolone
Assay: self-aminoacylation, catalytic enhancement (BWO) (fold over background); higher = more active; k-Seq, kA / k0A0; sequences stand for … in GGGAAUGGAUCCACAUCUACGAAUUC…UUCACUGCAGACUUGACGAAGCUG
Variants at the floor of the assay were thinned out.
Give the figure only, with no unit attached.

Consider the reported self-aminoacylation for these sequences:
Data request: Tell me reported self-aminoacylation for CUCCCUCAAACAAUCGGUCUG [Fam1A.1 aminoacylation ribozyme variant] , tested with biotinyl-Trp-oxazolone.
Data returned: 3.48

Data request: Tell me reported self-aminoacylation for AACUUUGCUAAUAGUGGCAAG [Fam3.1 aminoacylation ribozyme variant] , tested with biotinyl-Trp-oxazolone.
Data returned: 1.11

Data request: Tell me reported self-aminoacylation for AUUACUCUGUUCAUCGAGUGA [Fam2.1 aminoacylation ribozyme variant] , tested with biotinyl-Trp-oxazolone.
Data returned: 3.94

Data request: Tell me reported self-aminoacylation for UUUACCCUGCUCAUCGAGUGA [Fam2.1 aminoacylation ribozyme variant] , tested with biotinyl-Trp-oxazolone.
Data returned: 3.13

Data request: Tell me reported self-aminoacylation for CUUCACCUAGGUCAUCGGGAG [Fam2.2 aminoacylation ribozyme variant] , tested with biotinyl-Trp-oxazolone.
Data returned: 2.1

Data request: Tell me reported self-aminoacylation for AUUACUCUUGUCAUCGAGUGA [Fam2.1 aminoacylation ribozyme variant] , tested with biotinyl-Trp-oxazolone.
Data returned: 7.7

Data request: Tell me reported self-aminoacylation for AUUGACCUAGGUCAUCGGGCG [Fam2.2 aminoacylation ribozyme variant] , tested with biotinyl-Trp-oxazolone.
Data returned: 4.79

Data request: Tell me reported self-aminoacylation for CCACAUCUCAAGCAAUCGGUC [Fam1B.1 aminoacylation ribozyme variant] , tested with biotinyl-Trp-oxazolone.
Data returned: 1.08

Kindly consider the entry below.
Data request: Tell me reported self-aminoacylation for CCACACUUCAAGCAAACGGUU [Fam1B.1 aminoacylation ribozyme variant] , tested with biotinyl-Trp-oxazolone.
Data returned: 0.973
